Known inhibition of SARS-CoV-2 cytopathic effect of a selection of molecules
- System: Vero E6 infected with SARS-CoV-2
- assay: inhibition of SARS-CoV-2 cytopathic effect; higher = more antiviral protection, active = above 15
- condition info: 833.33 nM; 48 h
Just the number please, in %, no unit attached.

1. CC1=C(/C=C/C(C)=C/C=C/C(C)=C/C(=O)Nc2ccc(O)cc2)C(C)(C)CCC1 [fenretinide] = -0.67

-- ask Give the reported value of inhibition of SARS-CoV-2 cytopathic effect for this record: Cc1cc(C)cc(OCC2CNC(=O)O2)c1 (stereo not given) [metaxalone]
-- reply 1.04

-- ask Supply inhibition of SARS-CoV-2 cytopathic effect value. Item: CCCc1c(OCC(O)COc2ccc3c(=O)cc(C(=O)O)oc3c2CCC)ccc(C(C)=O)c1O (stereo not given)
-- reply 6.19

-- ask Provide inhibition of SARS-CoV-2 cytopathic effect value for the following molecule: COc1ccc2nc3[nH]nc(C)c3c(NCCOCCO)c2c1
-- reply -0.23

-- ask Look up and report measured inhibition of SARS-CoV-2 cytopathic effect for this entry: CCCC(=O)O[C@]1(C(=O)CCl)[C@@H](C)C[C@H]2[C@@H]3CCC4=CC(=O)C=C[C@]4(C)[C@@]3(F)C(=O)C[C@@]21C [clobetasone-butyrate]
-- reply -1.94

-- ask Specify inhibition of SARS-CoV-2 cytopathic effect for CCC[S+]([O-])c1ccc2[nH]c(NC(=O)OC)nc2c1 (stereo not given) [albendazole-oxide] and stop.
-- reply 1.7

-- ask Using known records, supply inhibition of SARS-CoV-2 cytopathic effect for NC1=NCC2c3ccccc3Cc3ccccc3N12 (stereo not given) [epinastine]
-- reply 7.29

-- ask Give reported inhibition of SARS-CoV-2 cytopathic effect value for Nc1cc(C(F)(F)F)c(-c2cc(N3CCOCC3)nc(N3CCOCC3)n2)cn1 [buparlisib]
-- reply -3.58

-- ask Return inhibition of SARS-CoV-2 cytopathic effect for the following molecule: C#Cc1cccc(Nc2ncnc3cc(OC)c(OCCCCCCC(=O)NO)cc23)c1
-- reply -6.89

-- ask Identify the reported inhibition of SARS-CoV-2 cytopathic effect for the following entry. CCCNC(C)C(=O)Nc1ccccc1C (stereo not given) [prilocaine]
-- reply 2.12

Values compiled from the supplement of paper PMC13380429.
